Test system: K4 kissing-loop RNA reporter;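 note: bound reporter read as fluorescence of individual clusters on recovered sequencing chips by microscopy, with normalized cluster intensities fitted with a binding model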
Test: apparent KD of K4 kissing-loop reporter; higher = weaker reporter binding
Conditions: Eterna round: R107; input ligand: arginine 13.2 mM

- Sequence Text: "GAUUCAGUGAUGUUGGAAGGCGAGCGGGAUACCAGCCAAGACUCAGGCCCUUGGCAGCCCACAUAUCCCAGGUAGAUAGUAGCUC [Same State - Theophylline A (Freestyle 12)]"
  Unit Tag: "nM"
  apparent KD of K4 kissing-loop reporter: 111
- Sequence Text: "AAGUGAUGUUGUAGUGAUGUUGUGAUGUUGCAGGAUAUAUAGUGAUGUAGAAGGGUAUGUGCAGUGUUGUUGUUUGAGUGUUGAU [twwumullin]"
  Unit Tag: "nM"
  apparent KD of K4 kissing-loop reporter: 43.2
- Sequence Text: "AGACUACCACACUGUCAAUAGACAGUGAACUAGGAUAUGCUGAUAAGCAGAAGGAGUGAUGUUCCGAGGUAGUCAAUAAAAUAAU [FmnAX 13 G66]"
  Unit Tag: "nM"
  apparent KD of K4 kissing-loop reporter: 246
- Sequence Text: "AACUGUCAAGGACAACAUUACUGAGGUGAUACCAGCAUCGAAAGAUGCCCUUGGCAGCGCCAACUUGCAGUGAUGUUGCAAGUAA [BrourdMod 1 - Jieux - Exclusion - Theophylline A]"
  Unit Tag: "nM"
  apparent KD of K4 kissing-loop reporter: 141
- Sequence Text: "AAAAGCCAGCAAGGAUAUACGCGCGAAGCAUCCAUGGUGCCAGUUCCAGUGAUGUUGGACCACAUCGUAGAAGGUGCGCGGCUCA [theeternabot_sameState_KL_FMN_B_33]"
  Unit Tag: "nM"
  apparent KD of K4 kissing-loop reporter: 223
- Sequence Text: "AAUAAAAUCACGGCCGCCACUGAUUUCCAUAUUAGGAGUGAUGUUCCUAUGACUAUAUAAUUUAACAGGACCGGGUGAAUAUUUA [JR_ExcTryptoB_Sub012]"
  Unit Tag: "nM"
  apparent KD of K4 kissing-loop reporter: 112
- Sequence Text: "AUAUAAGUCGGAGGAUAUCCAGUGAUGUUAUGUUGUGAUGUUUAGUGAUGUUAGGCAUCAGUGAAGGGAGAAGGCCGUAAGUGAU [APPLE]"
  Unit Tag: "nM"
  apparent KD of K4 kissing-loop reporter: 53.3
- Sequence Text: "AGACCACAAAGUGGUCAGUGUUCGCUGCCGCGAGGACCGGUACGGCCGCCACUCGCGAGUGAUGUUCGCGAGGGCAGCGAACACA [Omei KL Tryp A Exc A v4]"
  Unit Tag: "nM"
  apparent KD of K4 kissing-loop reporter: 87.8
- Sequence Text: "CACUUACGUAGUGAUGUUACGAUCUCUGAUACCAGACAACUCUAAGUCCCUUGGCAGCAGUCAUUUUGCUUCAAAUUUACUCAAA [JR_ExcTheophyA_Sub013]"
  Unit Tag: "nM"
  apparent KD of K4 kissing-loop reporter: 577
- Sequence Text: "UAUUGCCACAGAGUGAUGUUCUGGCCGGAUACCAGCAUGCAAUUAUGCCCUUGGCAGCCGGAUGCGCGUCCAGCCACCGGGCCUG [theeternabot_exclusion_KL_Theo_A_29]"
  Unit Tag: "nM"
  apparent KD of K4 kissing-loop reporter: 783
- Sequence Text: "AAAGUUGCAAGUGAUACCAGACGAGUGAAGGGAAGUAAUUAAUUAGGAGUGAUGUUCCGCGUCCCUUGGCAGCACUUUGUAAUUU [Exclusion Theophylline B GF 25]"
  Unit Tag: "nM"
  apparent KD of K4 kissing-loop reporter: 165
